tested on: MS2 coat protein; test: apparent KD of MS2 coat protein; designed switch direction (-1 OFF switch, 1 ON switch): 1; higher = weaker reporter binding; conditions: input ligand: none
apparent KD of MS2 coat protein: recorded values
Reply numerically in µM, unit not repeated.

Query block: Using known records, supply apparent KD of MS2 coat protein for GAGCCAGUCCGAGGAUAUUCAUAUUAAACAUGAGGAUCACCCAUGUAGGCUCAGAAAGAGCCUUGGGAGAAGGCGGACUGGCUC [Xeonanisa<<1] (Eterna round: R96, puzzle: Same State NG 2)
Result block: 0.201

Query block: Give me measured apparent KD of MS2 coat protein, please, for this sequence: GAGUGGCAGUUAGGAUAUAUAGUGAUAAUCACAAUAGAAGGAACUGACAUGAGGAUCACCCAUGUAGGACUAAUCCAGAGAGAG [Parity 40 - Jieux - Same State NG 1] (Eterna round: R96, puzzle: Same State NG 1)
Result block: 0.0268

Query block: Give the reported apparent KD of MS2 coat protein for this sequence. CUGAGCAAUCAAGGAUAUCACGUCGAUUAGACGUGAGAAGGUGAUCAUUACAUGAGGAUCACCCAUGUGUUACAUGGAGCUCAG [Brourd's SSNG1/1-A2 mod 3] (Eterna round: R96, puzzle: Same State NG 1)
Result block: 0.159

* * *

test system: MS2 coat protein; test: apparent KD of MS2 coat protein, switch OFF state (with FMN for OFF switches, without FMN for ON switches); designed switch direction (-1 OFF switch, 1 ON switch): -1; higher = weaker reporter binding; details: FMN input: 0 or 200 uM; Eterna round: R93 (includes R88 designs)
Recorded Metric: apparent KD of MS2 coat protein (µM)
Please reply with the bare figure in µM and do not write the unit itself.

Worked set:
Biosequence | System Under Test | apparent KD of MS2 coat protein (µM)
AAAAAACAUGAGGAUCACCCAUGUGAGGAUAUGACGUAAAUAAAGAAAGAAUAAAUCGUCAGAAGGCACACCAA [Mat - Exclusion 1 - Eli mod - D71] | MS2 coat protein | 0.0492
AAAAAACAUGAGGAUCACCCAUGUCAGGAUAUCCGAAAAAAAAAAAAAAAAAGGCCUUGGAGAAGGGACAUUCC [Chica Displaced 7- Jieux - Exclusion 1] | MS2 coat protein | 0.0575
AAGAACGCAGGAUAUACAUGAGGAUCACCCAUGUAAAAGAAAGAGGGAAAAGAGAAAAGUAGAAGGGCGAAGAA [Setepenre-meryamun Ptolemy I Soter] | MS2 coat protein | 0.0578

Query block: # lookup: MS2 coat protein apparent KD of MS2 coat protein, key = AAGGUACGAGGAUAUACAUAGAUACAGACACAUGUGGAUGUACAUGAGGAUCACCCAUGUAGAAGGCGUAUAUA [AJ 21]
Result block: 0.101

Query block: Enter apparent KD of MS2 coat protein (test system MS2 coat protein) for AACAGGACAGGAUAUACAUGAGGAUCACCCAUGUAGGAAUUAAGCAGAGUACCACACAGUAGAAGGGUCAUGGA [Ruby 26]
Result block: 0.0304

Query block: Give reported apparent KD of MS2 coat protein for AAAAUACAUGAGGAUCACCCAUGUGAGGAUAUUAGAAAGGGAAUAAAAUAACUUAAACUAAGAAGGCACAAAAA [Ex 1 May 28] (MS2 coat protein)
Result block: 0.0277

Query block: Answer with apparent KD of MS2 coat protein of AAAAGGUCAGGAUAUGCCCGCCGGGUGGGAAGGCCGGGUGGGUAGAAGGGACAUGAGGAUCACCCAUGUAAAAA [Opal 42] measured for MS2 coat protein.
Result block: 0.0479

Query block: Please tell me the measured apparent KD of MS2 coat protein for AACAAGUCAGGAUAUCAUACUAAUCACUUGCUUUAAAUGUAUGAGAAGGGACAUGAGGAUCACCCAUGUAAAGA [Exclusion4-cac3] ; system: MS2 coat protein.
Result block: 0.0341

Query block: Give the observed apparent KD of MS2 coat protein of AAAAAACAUGAGGAUCACCCAUGUGAGGAUAUGAAAAUACUAAGACAACAGUAAUCAAUCAGAAGGCACAACAA [JR_Exc--1_Sub1209] for MS2 coat protein.
Result block: 0.0258

Query block: Give apparent KD of MS2 coat protein; test system MS2 coat protein; sequence AAUAAACAUGAGGAUCACCCAUGUGAGGAUAUGGUAUAAUAAGGACAGUAAUGAUAAACCAGAAGGCACAAAUA [JR_Exc001_Sub1102]
Result block: 0.0347

* * *

tested on: MS2 coat protein; experiment: apparent KD of MS2 coat protein; designed switch direction (-1 OFF switch, 1 ON switch): 1; higher = weaker reporter binding; details: input ligand: none
Recorded Metric: apparent KD of MS2 coat protein (nM)
Output spec: scalar in nM, unitless text.

Before answering, review these 2 worked examples.
Biosequence | apparent KD of MS2 coat protein, nM
CGUAGGAUAUGCAGAGGAUCACCCUGUAGAAGGACGAUUACACAGGAUAUGCAGAGGAUCACCCUGUAGAAGGGUGACUAAUCU [pwkr ssNG3 DX 2xF5 +2xFMN.3] (Eterna round: R96, puzzle: Same State NG 3) | 55.7
UUGUUUAACGUAGGAUAUCGACCUACAUGAGGAUCACCCAUGUCUUUGUAUAGUUUUUUUUGUUACGAGAAGGACGUUUUGUAU [JR_SSNG2_Sub068] (Eterna round: R96, puzzle: Same State NG 2) | 170

Then there is this sequence:
Query block: Provide one value: measured apparent KD of MS2 coat protein of GCGCAAUGAUGUGACAUGAGGAUCACCCAUGUAACCUCAUGUAAGGAUAUCGGGAAAAAAAAAACCGAGAAGGUAUGGUCACGC [AK SSNG3-V2-27.2] (Eterna round: R96, puzzle: Same State NG 3)
Result block: 138

* * *

Each entry below lists one item and its recorded apparent KD of MS2 coat protein value.
test system: MS2 coat protein; assay: apparent KD of MS2 coat protein; designed switch direction (-1 OFF switch, 1 ON switch): 1; higher = weaker reporter binding; conditions: input ligand: microRNA oligo, concentration not stated
Return type: number; implicit unit µM.

Query block: Dear colleague, please send me the reported apparent KD of MS2 coat protein for GCUAGGAUAUGAAGAGGAUCACCCUUUAGAAGGAGCAUUAGCUAGGAUAUGAAGAGGAUCACCCUUUAGAAGGAGCACUACUCU [pwkr ssNG3 DX 2xF5 +2xFMN.7] (Eterna round: R96, puzzle: Same State NG 3) when you can.
Result block: 0.286

Query block: Identify measured apparent KD of MS2 coat protein corresponding to GCUCGGAUGAUGGCCCACAUGAGGAUCACCCAUGUGCGUGGGCAGGAUAUCUAGAUUAAGGAUGUAGAGAAGGGCCUACCGAGC [SameState NG3 #33] (Eterna round: R96, puzzle: Same State NG 3)
Result block: 0.14

Query block: Please look at this sequence and report its apparent KD of MS2 coat protein: UAAUUAAAGCAAGGAUAUCACGUCGAAUAGACGUGAGAAGGUGCUCCUUACAUGAGGAUCACCCAUGUAUAACAUGAAUAAUUA [SSNG1/10-B1] (Eterna round: R96, puzzle: Same State NG 1)
Result block: 0.702

Query block: Let me know recorded apparent KD of MS2 coat protein for AGAUAAGUCACAGGAUAUUCCUACAUUAAUAUGGAAGAAGGGUGAGCAUGAUUCGAUACAUGAGGAUCACCCAUGUAUCCGCGA [Eternabot solution 31] (Eterna round: R96, puzzle: Same State NG 1) , thanks.
Result block: 0.054

Query block: Given the sequence AGCCGAGACACAGGAUAUAGAUAUCUACAUGAGGAUCACCCAUGUAGCAACACGUGGUAGUGAUACUAGAAGGGUGCUCGGCGC [Omei SS(NG)2 Cv9] (Eterna round: R96, puzzle: Same State NG 2) , write its reported apparent KD of MS2 coat protein.
Result block: 0.06

* * *

system: MS2 coat protein; assay: apparent KD of MS2 coat protein, switch ON state; designed switch direction (-1 OFF switch, 1 ON switch): 1; higher = weaker reporter binding; conditions: FMN input: 0 or 200 uM; Eterna round: R93 (includes R88 designs)
Recorded Metric: apparent KD of MS2 coat protein (nM)
The figure you give is taken to be in nM; do not add the unit.

Biosequence | Unit Tag | apparent KD of MS2 coat protein
AAAAAACAUGAGGAUCACCCAUGUAAAAAAAACACAGGAUAUCCCUAAAAAAAAAAAAAAGGAGAAGGGUGAAAAA [Nob's Hobby 2 - Jieux - Same State 1] | nM | 21.3
AAAAAAAAAGUAGAGGAUAUCCGAGUGGUAACAUGAGGAUCACCCAUGUGAAGAAAGGAACAUGAGGAGAAGGCUACAAAAAAAAA [Normal (18/17)] | nM | 11.9

Kindly consider the entry below.
Query block: Item GCAAAACAUGAGGAUCACCCAUGUGAAAAGAAUGUAGGAUAUGGGCUCAUAAAUAGCAGCCCAGAAGGGCGAAGAA [Onmace] : provide apparent KD of MS2 coat protein
Result block: 29.6
